Molecular target: Acetylcholinesterase (Homo sapiens)
Test: Acetylcholinesterase (AChE) small molecule antagonists: colormetric cell-based qHTS assay (AID 1347395); further: nearly all actives have a fitted effect of over 30% in size
Settings: SH-SY5Y cells AChE activity, colorimetric (Ellman); series mostly up to 115 µM
Inconclusive results are not listed. Active and inactive are the calls of the source. The call rests on the fitted dose curve.
The reply should name one outcome from active, inactive

Test call, this molecule: O=C(CCN1CCC(c2ccccc2)C1)c1ccc2c(c1)OCCO2 (centres undefined)
active

// query: CCN(CC)C(C)CN1c2ccccc2Sc2ccccc21 (centres undefined)
inactive

// query: Clc1nc2ccccc2nc1Cl
inactive

// query: CCOC(=O)c1ccc(C#Cc2ccc3c(c2)C(C)(C)CCS3)nc1
inactive

// query: CC(C)(C)NSc1nc2ccccc2s1
inactive

// query: CC/C=C\CCCCO
inactive

// query: CC(=O)SCC(CC(=O)c1ccc(C)cc1)C(=O)O (centres undefined)
inactive

// query: OCCCCCCO
inactive

// query: CC1=CC(=O)CC(C)(C)C1=O
inactive

// query: Cc1ccnc(N)c1
inactive

// query: CCCCCCCC[Si](OCC)(OCC)OCC
inactive

// query: CCC(C)CCCC(C)(C)O (centres undefined)
inactive

// query: Cc1c(Cl)cccc1Nc1ccccc1C(=O)O
inactive

// query: Cc1ccc(Cl)cc1Cl
inactive

// query: CCOc1ccc(C(=O)OCCN(CC)CC)cc1
inactive

// query: O=C1CCCN1CCO
inactive

// query: CO[Si](CCCS)(OC)OC
inactive

// query: Cc1ccc(NC(N)=O)cc1
inactive

// query: CC1(CN2CCC(n3c(=O)[nH]c4ccccc43)CC2)OCc2ccccc2-n2cccc21 (centres undefined)
inactive

// query: CCN1CCC[C@H]1CNC(=O)c1c(OC)ccc(Br)c1OC
inactive

// query: O=C(O)[C@@H]1[C@H]2C[C@H]3c4[nH]c5ccccc5c4CCN3C[C@@H]2CC[C@@H]1O
inactive

// query: FC(F)(F)C(F)(F)C(F)(F)C(F)(F)C(F)(F)C(F)(F)CCI
inactive

// query: CN1CCCC(n2nc(Cc3ccc(Cl)cc3)c3ccccc3c2=O)CC1 (centres undefined)
active

// query: Cc1c(C(=O)NCCO)[n+](=O)c2ccccc2n1[O-]
inactive

// query: Nc1ccccc1O
inactive

// query: N#CCN(CC#N)CCN(CC#N)CC#N
inactive

// query: CCCCCCCCCC[N+](C)(CCCCCCCCCC)CCC[Si](OC)(OC)OC
inactive

// query: Nc1cccc2c(N)cccc12
inactive

// query: CC1(C)C(=O)N(CO)C(=O)N1CO
inactive

###

Target: Acetylcholinesterase (Homo sapiens) (UniProt P22303)
Sequence (P22303 whole entry, looked up): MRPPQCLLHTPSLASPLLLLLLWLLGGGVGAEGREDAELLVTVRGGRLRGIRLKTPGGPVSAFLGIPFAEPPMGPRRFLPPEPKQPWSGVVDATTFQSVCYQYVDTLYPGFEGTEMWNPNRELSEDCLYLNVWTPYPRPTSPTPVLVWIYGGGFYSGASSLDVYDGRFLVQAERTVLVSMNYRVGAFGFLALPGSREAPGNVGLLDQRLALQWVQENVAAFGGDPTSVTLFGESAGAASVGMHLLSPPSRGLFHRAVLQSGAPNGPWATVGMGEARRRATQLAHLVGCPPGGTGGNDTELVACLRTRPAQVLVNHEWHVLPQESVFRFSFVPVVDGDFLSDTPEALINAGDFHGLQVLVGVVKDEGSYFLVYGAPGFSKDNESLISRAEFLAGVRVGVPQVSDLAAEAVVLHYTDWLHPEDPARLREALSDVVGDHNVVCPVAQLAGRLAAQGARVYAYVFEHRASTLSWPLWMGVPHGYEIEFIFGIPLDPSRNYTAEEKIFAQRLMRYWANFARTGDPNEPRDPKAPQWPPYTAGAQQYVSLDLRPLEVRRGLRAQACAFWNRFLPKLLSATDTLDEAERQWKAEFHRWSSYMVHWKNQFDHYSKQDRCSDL
Test: Acetylcholinesterase (AChE) small molecule antagonists: enzyme-based qHTS assay (AID 1347397); further: nearly all actives have a fitted effect of over 55% in size
Conditions: AChE enzyme activity inhibition; series mostly up to 115 µM
The source made the active and inactive calls. Calls come from the whole dose curve.
The reply should name one outcome from 1 (yes) = active, 0 (no) = inactive

Test call, this compound: Cc1ccc(O)c([N+](=O)[O-])c1
0 (no)

// query: CS(C)=O
0 (no)

// query: CCCCCCOc1ccccc1C(N)=O
0 (no)

// query: CC(O)CCCCn1c(=O)c2c(ncn2C)n(C)c1=O (stereo not drawn)
0 (no)

// query: Oc1cccc2c(O)cccc12
0 (no)

// query: CCCCCCOC(=O)c1ccccc1
0 (no)

// query: CN1CCCC(n2nc(Cc3ccc(Cl)cc3)c3ccccc3c2=O)CC1 (stereo not drawn)
1 (yes)

// query: CC(C)CCCO
0 (no)

// query: Cc1cc(C)c(NC(=O)CN(CC(=O)O)CC(=O)O)c(C)c1Br
0 (no)

// query: CCOc1ccc(C(=O)OCCN(CC)CC)cc1
0 (no)

// query: CC(C(=O)O)c1ccc(CC2CCCC2=O)cc1 (stereo not drawn)
0 (no)

// query: Clc1cccnc1
0 (no)

// query: NC1CCN(c2nc3c(cc2F)c(=O)c(C(=O)O)cn3-c2ccc(F)cc2F)C1 (stereo not drawn)
0 (no)

// query: O=C(Cn1ccnc1[N+](=O)[O-])NCCO
0 (no)

// query: CCCCOc1ccc(OCCCN2CCOCC2)cc1
0 (no)

// query: CCOC(=O)Nc1ccc(NCc2ccc(F)cc2)nc1N
0 (no)

// query: N#C/C(=C1\SCC(c2ccccc2Cl)S1)n1ccnc1 (stereo not drawn)
0 (no)

// query: CCCCCCOC(=O)CC(CC(=O)OCCCCCC)(OC(=O)CCC)C(=O)OCCCCCC
0 (no)

// query: C=C(C)C1CC=C(C)C(O)C1 (stereo not drawn)
0 (no)

// query: Cc1cccc(Br)c1
0 (no)

// query: O=S(=O)(c1ccccc1)c1ccc(Cl)cc1
0 (no)

// query: C[N+](C)(CCOc1ccccc1)Cc1cccs1
0 (no)

// query: CC[N+](C)(CC)CCOC(=O)C(O)(c1ccccc1)C1CCCCC1 (stereo not drawn)
0 (no)

// query: O=C(Nc1ccc([N+](=O)[O-])cc1)Nc1ccc([N+](=O)[O-])cc1
0 (no)

// query: O=C(O)CNC(=O)c1ccccc1I
0 (no)

// query: COC(=O)/C=C\C(=O)O
0 (no)

// query: CCN(CC)C(C)=O
0 (no)

// query: COc1cc(N)c(Cl)cc1C(=O)NC1CCN(CCCOc2ccc(F)cc2)CC1OC (stereo not drawn)
0 (no)
